Target: recombinant guanylate cyclase reporter cell line (Rattus norvegicus, UniProt P19686+P20595)
Construct: expressed in transfected cells
Sequence (P20595 whole entry): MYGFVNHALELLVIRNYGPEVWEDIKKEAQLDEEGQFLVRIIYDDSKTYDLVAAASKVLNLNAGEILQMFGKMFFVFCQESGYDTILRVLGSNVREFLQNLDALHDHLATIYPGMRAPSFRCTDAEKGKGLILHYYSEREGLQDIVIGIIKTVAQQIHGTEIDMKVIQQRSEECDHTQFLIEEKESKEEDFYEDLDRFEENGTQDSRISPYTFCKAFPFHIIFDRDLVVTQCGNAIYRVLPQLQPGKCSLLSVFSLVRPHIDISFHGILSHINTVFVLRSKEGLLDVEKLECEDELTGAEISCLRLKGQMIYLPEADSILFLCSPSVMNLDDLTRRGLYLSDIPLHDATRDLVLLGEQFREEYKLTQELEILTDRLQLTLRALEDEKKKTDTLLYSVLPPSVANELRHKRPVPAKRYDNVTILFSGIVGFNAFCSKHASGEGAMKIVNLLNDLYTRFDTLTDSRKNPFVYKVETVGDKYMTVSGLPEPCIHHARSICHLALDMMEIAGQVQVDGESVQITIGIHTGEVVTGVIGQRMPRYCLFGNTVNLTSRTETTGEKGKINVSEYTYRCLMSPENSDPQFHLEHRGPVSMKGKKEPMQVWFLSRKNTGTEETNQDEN
Sequence (P19686 whole entry): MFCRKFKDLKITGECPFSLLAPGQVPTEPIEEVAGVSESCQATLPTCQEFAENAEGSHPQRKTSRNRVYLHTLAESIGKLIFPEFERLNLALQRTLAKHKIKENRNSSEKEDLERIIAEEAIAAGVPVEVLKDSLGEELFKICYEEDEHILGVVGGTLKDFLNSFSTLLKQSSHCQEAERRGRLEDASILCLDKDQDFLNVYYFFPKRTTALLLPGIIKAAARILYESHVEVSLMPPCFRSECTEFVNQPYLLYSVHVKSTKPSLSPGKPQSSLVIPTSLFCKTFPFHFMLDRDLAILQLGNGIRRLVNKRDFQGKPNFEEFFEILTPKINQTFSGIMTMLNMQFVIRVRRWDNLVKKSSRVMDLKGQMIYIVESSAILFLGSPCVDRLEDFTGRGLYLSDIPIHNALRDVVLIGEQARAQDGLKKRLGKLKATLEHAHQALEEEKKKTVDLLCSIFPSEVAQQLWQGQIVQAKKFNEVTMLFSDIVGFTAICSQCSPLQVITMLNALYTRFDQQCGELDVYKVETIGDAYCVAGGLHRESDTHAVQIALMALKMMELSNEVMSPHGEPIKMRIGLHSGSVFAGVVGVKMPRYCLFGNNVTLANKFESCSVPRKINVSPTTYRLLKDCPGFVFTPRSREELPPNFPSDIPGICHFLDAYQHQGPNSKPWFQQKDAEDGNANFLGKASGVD
Experiment: B-2. Action on recombinant guanylate cyclase reporter cell line
Format: cell-based
Settings: MEC = minimal effective concentration; in some cases mean values from individual determinations
readout-label: MEC (µM)

INSERT INTO measurements (compound, readout_label, measured_number) VALUES
  ('Cc1nc2c(OCc3c(F)cccc3F)cc(Cl)cn2c1C(=O)NC1CNCc2ccccc21 (single isomer, unassigned; ent-6) [Example 107]', 'MEC', 0.30),
  ('Cc1cc(OCc2c(F)cccc2F)c2nc(C)c(C(=O)NCC(C)(N)C3CC3)n2c1 (racemic) [Example 259]', 'MEC', 0.03),
  ('Cc1cc(OCc2c(F)cccc2F)c2nc(C)c(C(=O)NCC(N)C(C)C)n2c1 (single isomer, unassigned) [Example 224]', 'MEC', 0.30),
  ('Cc1cc(OCc2c(F)cccc2F)c2nc(C)c(C(=O)NCC(C)(N)C3CC3)n2c1 (single isomer, unassigned; enantiomer a) [Example 260]', 'MEC', 0.10),
  ('Cc1nc2c(OCc3c(F)cccc3F)cccn2c1C(=O)NCC(N)C(C)C (single isomer, unassigned) [Example 229]', 'MEC', 1.00),
  ('CCC(C)(N)CNC(=O)c1c(C)nc2c(OCc3c(F)cccc3F)cc(Cl)cn12 (single isomer, unassigned) [Example 195]', 'MEC', 0.30);
